Source: patent US20030091557A1

target: recombinant human ACE-2 (human, UniProt Q9BYF1 18-740, limits assumed); test: cell-based or functional assay
Sequence (Q9BYF1 18-740 limits assumed): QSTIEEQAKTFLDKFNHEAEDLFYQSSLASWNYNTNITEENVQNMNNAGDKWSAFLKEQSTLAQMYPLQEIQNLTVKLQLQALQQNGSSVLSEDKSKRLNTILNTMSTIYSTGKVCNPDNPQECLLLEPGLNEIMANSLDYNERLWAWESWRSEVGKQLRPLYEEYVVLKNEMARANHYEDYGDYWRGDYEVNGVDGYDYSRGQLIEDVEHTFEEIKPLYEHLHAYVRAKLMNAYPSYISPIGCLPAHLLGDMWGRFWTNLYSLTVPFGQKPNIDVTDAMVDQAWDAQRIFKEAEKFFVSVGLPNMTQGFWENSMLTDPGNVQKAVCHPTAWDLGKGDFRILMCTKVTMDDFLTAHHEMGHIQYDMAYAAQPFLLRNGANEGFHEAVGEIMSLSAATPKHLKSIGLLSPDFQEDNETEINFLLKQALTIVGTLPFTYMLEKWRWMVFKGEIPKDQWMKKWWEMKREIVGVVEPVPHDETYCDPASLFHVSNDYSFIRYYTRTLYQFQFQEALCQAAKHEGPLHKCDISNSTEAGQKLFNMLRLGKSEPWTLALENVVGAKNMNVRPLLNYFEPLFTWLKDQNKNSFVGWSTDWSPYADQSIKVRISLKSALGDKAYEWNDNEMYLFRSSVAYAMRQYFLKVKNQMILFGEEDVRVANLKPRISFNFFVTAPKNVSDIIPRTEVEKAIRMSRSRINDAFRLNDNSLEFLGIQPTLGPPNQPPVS
Bridges are numbered along the chain shown (N, C = ends).
propertyLabel: IC50 µM (ACE-2 cleavage of M-2195, fluorometric) (µM)

A: Ac-AGQKECKFGYPHCLPWGTEGGG-NH2 (disulfide 6-13 (inferred); also: oxidized) [DX-530]
B: Ac-GDLHACRPVRGDPWWACTLGDPEGGG-NH2 (disulfide 6-17 (inferred); also: oxidized) [DX-513]
query: Lab notebook, comparison: A versus B , higher IC50 µM (ACE-2 cleavage of M-2195, fluorometric) goes to which? Kindly give the label for the entry you pick.
result: A
